Cited source for all entries: patent US10231954B2

biological target: BRK (Homo sapiens); assay: Kinase profiling BRK; type: biochemical; details: 100 micromolar inhibitor concentration; 100 is no change; read-out: residual kinase activity, BRK
Sequence (Q13882 whole entry, species assumed): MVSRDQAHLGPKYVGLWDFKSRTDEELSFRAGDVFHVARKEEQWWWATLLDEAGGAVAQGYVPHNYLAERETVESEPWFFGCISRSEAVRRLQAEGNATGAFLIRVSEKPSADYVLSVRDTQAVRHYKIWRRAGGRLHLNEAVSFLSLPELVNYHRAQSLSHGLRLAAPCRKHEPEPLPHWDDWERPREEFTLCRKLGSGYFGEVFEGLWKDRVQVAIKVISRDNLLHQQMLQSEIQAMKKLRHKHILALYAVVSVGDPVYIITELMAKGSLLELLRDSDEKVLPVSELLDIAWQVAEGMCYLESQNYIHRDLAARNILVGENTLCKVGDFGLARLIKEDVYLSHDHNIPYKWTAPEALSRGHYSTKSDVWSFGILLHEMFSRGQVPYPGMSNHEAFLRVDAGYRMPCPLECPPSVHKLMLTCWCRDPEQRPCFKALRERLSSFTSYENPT
remaining activity at 100 µM vs 60%: less than gives true; not less than gives false.

Consider the compound CC(=O)Nc1nc2ccc(C(F)(F)F)cc2s1 . Is its remaining activity at 100 µM strictly less than 60%? false

Dear colleague, could you confirm whether remaining activity at 100 µM of COc1ccc2sc(NC(C)=O)nc2c1 falls below 60%? Thanks. false

Hi there! Is remaining activity at 100 µM for CC(=O)Nc1nc2cc(C(F)(F)F)ccc2s1 below 60%, do you know? false

Hello, I'm reviewing records and need to know if remaining activity at 100 µM of CC(=O)Nc1nc2ccc(O)cc2s1 is below 60%. Could you check? true

For this compound, is remaining activity at 100 µM lower than 60%? CC(=O)Nc1nc2cc(F)ccc2s1 false

hey, is remaining activity at 100 µM for CC(=O)Nc1nc2ccc(C#N)cc2s1 lower than 60% or not? false

###

Molecular target: EPH-B3 (Homo sapiens)
Sequence (P54753 34-998): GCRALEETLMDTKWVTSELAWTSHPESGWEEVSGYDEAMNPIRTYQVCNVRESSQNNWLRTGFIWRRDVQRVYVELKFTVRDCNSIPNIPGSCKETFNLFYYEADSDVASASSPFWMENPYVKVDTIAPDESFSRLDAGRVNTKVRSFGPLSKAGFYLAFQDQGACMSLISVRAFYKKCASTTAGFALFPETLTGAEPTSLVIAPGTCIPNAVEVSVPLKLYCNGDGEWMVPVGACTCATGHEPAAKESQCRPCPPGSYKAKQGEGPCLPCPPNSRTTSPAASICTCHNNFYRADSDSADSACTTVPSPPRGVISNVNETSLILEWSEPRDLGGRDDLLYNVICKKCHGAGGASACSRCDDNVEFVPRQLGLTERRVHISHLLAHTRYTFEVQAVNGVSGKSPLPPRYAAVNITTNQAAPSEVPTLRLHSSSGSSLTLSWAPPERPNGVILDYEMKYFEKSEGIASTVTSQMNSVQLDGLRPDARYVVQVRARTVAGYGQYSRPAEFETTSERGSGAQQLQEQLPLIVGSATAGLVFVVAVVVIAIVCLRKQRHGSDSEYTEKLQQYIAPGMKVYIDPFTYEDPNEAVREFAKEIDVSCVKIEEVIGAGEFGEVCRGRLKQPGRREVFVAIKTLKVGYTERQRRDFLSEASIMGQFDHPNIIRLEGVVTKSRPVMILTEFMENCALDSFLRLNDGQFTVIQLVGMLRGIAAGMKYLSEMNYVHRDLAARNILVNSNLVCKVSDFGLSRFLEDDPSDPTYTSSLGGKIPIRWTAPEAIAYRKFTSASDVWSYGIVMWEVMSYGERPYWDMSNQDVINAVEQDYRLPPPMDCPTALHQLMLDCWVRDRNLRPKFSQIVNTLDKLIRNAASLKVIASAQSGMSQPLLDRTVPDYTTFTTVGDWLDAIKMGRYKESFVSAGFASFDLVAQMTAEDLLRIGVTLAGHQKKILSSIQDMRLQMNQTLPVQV
Assay: Kinase profiling EPH-B3
Assay type: biochemical
Conditions: 100 micromolar inhibitor concentration; 100 is no change
METRIC: residual kinase activity, EPH-B3
Please reply with the value in numeric form only.

Short answer please: residual kinase activity, EPH-B3, EPH-B3 (Homo sapiens), entry O=C(Nc1nc2cc(O)ccc2s1)c1cccnc1 108

Which residual kinase activity, EPH-B3 is reported with EPH-B3 (Homo sapiens) for this entry: O=C(Nc1nc2ccc(O)cc2s1)c1ccccc1 ? 93

Quick check: residual kinase activity, EPH-B3 on EPH-B3 (Homo sapiens), item O=C(Nc1nc2cc(O)ccc2s1)c1ccccn1 ? 44

Give EPH-B3 (Homo sapiens) residual kinase activity, EPH-B3 for CC(=O)Nc1nc2cc(C)ccc2s1 107

###

target: SmMLCK (Homo sapiens, UniProt Q15746); assay: Kinase profiling SmMLCK; format: biochemical; conditions: 100 micromolar inhibitor concentration; 100 is no change
METRIC: residual kinase activity, SmMLCK
Give only the figure.

What measured residual kinase activity, SmMLCK goes with O=C(Nc1nc2cc(O)ccc2s1)c1ccccn1 ? 37

Requested read-out: residual kinase activity, SmMLCK. Entry: O=C(Nc1nc2cc(O)ccc2s1)c1ccncc1 63

Endpoint output: residual kinase activity, SmMLCK of N#Cc1ccc2nc(NC(=O)c3ccccc3)sc2c1 . Value? 94

Item under review: COC(=O)c1cccc(C(=O)Nc2nc3cc(OC)ccc3s2)c1 . Reported residual kinase activity, SmMLCK? 79

Would you mind telling me what residual kinase activity, SmMLCK value was observed for O=C(Nc1nc2ccc(O)cc2s1)c1ccncc1 ? 33

###

target: JNK1 (Homo sapiens); assay: Kinase profiling JNK1; assay type: biochemical; details: 100 micromolar inhibitor concentration; 100 is no change
Sequence (P45983 whole entry, species assumed): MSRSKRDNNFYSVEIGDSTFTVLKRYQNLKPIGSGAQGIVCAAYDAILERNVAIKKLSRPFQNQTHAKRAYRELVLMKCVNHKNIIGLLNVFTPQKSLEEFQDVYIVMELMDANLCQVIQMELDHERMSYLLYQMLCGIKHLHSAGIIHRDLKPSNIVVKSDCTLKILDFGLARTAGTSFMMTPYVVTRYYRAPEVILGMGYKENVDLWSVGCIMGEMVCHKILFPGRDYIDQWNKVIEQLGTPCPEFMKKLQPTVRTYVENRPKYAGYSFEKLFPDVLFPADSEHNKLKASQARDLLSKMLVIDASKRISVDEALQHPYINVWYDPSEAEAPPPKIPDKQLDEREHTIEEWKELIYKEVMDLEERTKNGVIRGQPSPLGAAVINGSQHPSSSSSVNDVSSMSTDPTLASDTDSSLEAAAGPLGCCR
For each record, write down the corresponding residual kinase activity, JNK1.

Endpoint output: residual kinase activity, JNK1 of CC(=O)Nc1nc2ccccc2s1 . Value? 97

For the molecule shown here, CC(=O)Nc1cccc(C(=O)Nc2nc3ccc(O)cc3s2)c1 , give the reported residual kinase activity, JNK1. 80

Query: residual kinase activity, JNK1; subject: O=C(Nc1nc2ccc(O)cc2s1)c1cccnc1 102

Could you share which residual kinase activity, JNK1 value was measured for O=C(Nc1nc2ccc(O)cc2s1)c1ccncc1 ? 99

Reported residual kinase activity, JNK1 for CC(=O)Nc1cccc(C(=O)Nc2nc3cc(O)ccc3s2)c1 : what is it? 68

Looking for the measured residual kinase activity, JNK1 of COc1ccc2nc(NC(=O)c3ccccc3)sc2c1 , can you help? 95

Would you kindly share the measured residual kinase activity, JNK1 for O=C(Nc1nc2cc(O)ccc2s1)c1ccncc1 ? 95

###

What residual kinase activity, PIM1 was measured for each of the following?
target: PIM1 (Homo sapiens, UniProt P11309); experiment: Kinase profiling PIM1; type: biochemical; conditions: 100 micromolar inhibitor concentration; 100 is no change
Sequence (P11309 whole entry, species assumed): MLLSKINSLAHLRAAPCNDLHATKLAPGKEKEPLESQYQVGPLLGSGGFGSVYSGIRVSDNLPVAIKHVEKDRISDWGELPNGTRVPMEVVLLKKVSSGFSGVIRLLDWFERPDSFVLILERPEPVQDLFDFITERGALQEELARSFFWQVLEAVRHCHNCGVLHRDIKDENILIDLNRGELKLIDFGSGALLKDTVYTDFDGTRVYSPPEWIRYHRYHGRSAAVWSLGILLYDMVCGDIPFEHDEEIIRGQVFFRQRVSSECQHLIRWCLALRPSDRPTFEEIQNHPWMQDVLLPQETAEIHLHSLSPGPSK

Form: Entry = COc1ccc2sc(NC(=O)c3ccccc3)nc2c1 | System = PIM1 (Homo sapiens, UniProt P11309) | residual kinase activity, PIM1 = ____ 19

Give residual kinase activity, PIM1 (PIM1 (Homo sapiens, UniProt P11309)) of the following compound: O=C(Nc1nc2ccc(F)cc2s1)c1ccccc1 69

API: value(readout= residual kinase activity, PIM1, system= PIM1 (Homo sapiens, UniProt P11309), query= CC(=O)Nc1nc2cc(C)ccc2s1 ) 21

Enter reported residual kinase activity, PIM1 observed with PIM1 (Homo sapiens, UniProt P11309) for O=C(Nc1nc2ccc(O)cc2s1)c1ccccc1 35

Please state recorded residual kinase activity, PIM1 (tested on PIM1 (Homo sapiens, UniProt P11309)) of O=C(Nc1nc2ccc(O)cc2s1)c1ccncc1 59

Lab request: please report residual kinase activity, PIM1 under test system PIM1 (Homo sapiens, UniProt P11309) for O=C(Nc1nc2ccc(O)cc2s1)c1cccnc1 42

# get_value(readout= residual kinase activity, PIM1, system= PIM1 (Homo sapiens, UniProt P11309)) for O=C(Nc1nc2cc(O)ccc2s1)c1ccncc1 74

Look up residual kinase activity, PIM1 with PIM1 (Homo sapiens, UniProt P11309) for this compound: COc1ccc2nc(NC(=O)c3ccccc3)sc2c1 76

Record COC(=O)c1cccc(C(=O)Nc2nc3ccc(F)cc3s2)c1 : what is its residual kinase activity, PIM1 with PIM1 (Homo sapiens, UniProt P11309)? 99

Kindly state the measured residual kinase activity, PIM1 obtained for O=C(Nc1nc2cc(O)ccc2s1)c1ccccn1 with PIM1 (Homo sapiens, UniProt P11309). 39

PIM1 (Homo sapiens, UniProt P11309) / residual kinase activity, PIM1 / COC(=O)c1cccc(C(=O)Nc2nc3cc(OC)ccc3s2)c1 : value? 95

Provide the documented residual kinase activity, PIM1 with PIM1 (Homo sapiens, UniProt P11309) as the system for CC(=O)Nc1nc2ccccc2s1 79

Notebook entry, PIM1 (Homo sapiens, UniProt P11309) assay: residual kinase activity, PIM1 of COc1ccc2sc(NC(=O)c3cccc(C(N)=O)c3)nc2c1 = ? 50

Give the reported residual kinase activity, PIM1 for O=C(Nc1nc2cc(O)ccc2s1)c1ccccc1 (system: PIM1 (Homo sapiens, UniProt P11309)). 14

###

biological target: TESK1 (Homo sapiens, UniProt Q15569); test: Kinase profiling TESK1; assay type: biochemical; conditions: 100 micromolar inhibitor concentration; 100 is no change
Sequence (Q15569 whole entry, species assumed): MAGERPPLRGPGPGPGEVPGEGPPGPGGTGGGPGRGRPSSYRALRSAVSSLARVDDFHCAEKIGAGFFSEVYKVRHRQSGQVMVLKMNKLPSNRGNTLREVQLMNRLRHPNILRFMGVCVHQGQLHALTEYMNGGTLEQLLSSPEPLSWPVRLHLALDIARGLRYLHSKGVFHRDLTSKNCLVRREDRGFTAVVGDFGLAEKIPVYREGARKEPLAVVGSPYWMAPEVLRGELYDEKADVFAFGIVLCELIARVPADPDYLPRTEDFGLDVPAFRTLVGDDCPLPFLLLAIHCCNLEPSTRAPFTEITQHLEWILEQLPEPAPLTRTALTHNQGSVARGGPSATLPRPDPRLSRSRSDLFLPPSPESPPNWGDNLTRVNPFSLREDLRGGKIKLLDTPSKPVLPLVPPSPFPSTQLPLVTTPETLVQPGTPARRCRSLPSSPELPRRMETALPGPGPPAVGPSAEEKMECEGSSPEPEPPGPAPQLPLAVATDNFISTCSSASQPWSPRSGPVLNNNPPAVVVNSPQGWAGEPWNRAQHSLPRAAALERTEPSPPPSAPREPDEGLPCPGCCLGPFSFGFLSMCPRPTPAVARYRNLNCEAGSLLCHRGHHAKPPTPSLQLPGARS
Threshold rule: residual kinase activity, TESK1 greater than or equal to 90 is T; below that, F.

Could you verify whether the entry O=C(Nc1nc2cc(O)ccc2s1)c1cccnc1 shows residual kinase activity, TESK1 of no less than 90? T

Confirm if residual kinase activity, TESK1 reported for the molecule O=C(Nc1nc2ccc(O)cc2s1)c1ccncc1 is 90 or above. F

Entry O=C(Nc1nc2cc(O)ccc2s1)c1ccccn1 : is its residual kinase activity, TESK1 no less than 90? T

Reported residual kinase activity, TESK1 reaches at least 90 for O=C(Nc1nc2ccc(O)cc2s1)c1ccccn1 ? F

// inclusive: residual kinase activity, TESK1 at least 90? input: O=C(Nc1nc2ccc(O)cc2s1)c1cccnc1 F

Is the recorded value of residual kinase activity, TESK1 equal to or greater than 90 for this molecule? CC(=O)Nc1nc2ccccc2s1 T

Say whether CC(=O)Nc1nc2cc(C)ccc2s1 shows residual kinase activity, TESK1 of 90 or more. T

Textbook exercise: given the entry O=C(Nc1nc2ccc(O)cc2s1)c1ccccc1 , state whether its residual kinase activity, TESK1 is greater than or equal to 90. F
